What relative viability was measured for each of the following?
# Tested on: NCI-H647
# measurement_notes: relative viability (nuclei count vs DMSO), 5 days (fraction); higher = more cells survive
# condition_description: first compound 0.002 µM
Answers are plain numbers.

# count of solved cases: 3
# compound, measurement_target, result
measured = [
    ("CCNC(=O)c1noc(-c2cc(C(C)C)c(O)cc2O)c1-c1ccc(CN2CCOCC2)cc1 [Luminespib] + Nc1nc2[nH]cc(CCc3ccc(C(=O)N[C@@H](CCC(=O)O)C(=O)O)cc3)c2c(=O)[nH]1 [Pemetrexed] (partner 0.2 µM)", "NCI-H647", 0.202),
    ("CCNC(=O)c1noc(-c2cc(C(C)C)c(O)cc2O)c1-c1ccc(CN2CCOCC2)cc1 [Luminespib] + O=C(CCCCCCC(=O)Nc1ccccc1)NO [Vorinostat] (partner 1 µM)", "NCI-H647", 0.584),
    ("CCNC(=O)c1noc(-c2cc(C(C)C)c(O)cc2O)c1-c1ccc(CN2CCOCC2)cc1 [Luminespib] + CC(C)C[C@H](NC(=O)[C@H](Cc1ccccc1)NC(=O)c1cnccn1)B(O)O [Bortezomib] (partner 0.002 µM)", "NCI-H647", 0.999),
]

Now for another entry.
Any idea what relative viability came out for CCNC(=O)c1noc(-c2cc(C(C)C)c(O)cc2O)c1-c1ccc(CN2CCOCC2)cc1 [Luminespib] + COc1cccc2cc(-c3nc([C@H]4CC[C@H](C(=O)O)CC4)n4ncnc(N)c34)[nH]c12 [OSI-027] (partner 0.5 µM) on NCI-H647?
0.717

---

What relative viability was measured for each of the following?
# Test system: NCI-H727
# measurement_notes: relative viability (nuclei count vs DMSO), 5 days (fraction); higher = more cells survive
# condition_description: first compound 0.006325 µM
Answers are plain numbers.

# count of solved cases: 4
# molecule, relative viability
measured = [
    ("CCNC(=O)c1noc(-c2cc(C(C)C)c(O)cc2O)c1-c1ccc(CN2CCOCC2)cc1 [Luminespib] + Cc1nc(Nc2ncc(C(=O)Nc3c(C)cccc3Cl)s2)cc(N2CCN(CCO)CC2)n1 [Dasatinib] (partner 0.075 µM)", 0.331),
    ("CCNC(=O)c1noc(-c2cc(C(C)C)c(O)cc2O)c1-c1ccc(CN2CCOCC2)cc1 [Luminespib] + O=C(c1cc(Cc2n[nH]c(=O)c3ccccc23)ccc1F)N1CCN(C(=O)C2CC2)CC1 [Olaparib] (partner 8 µM)", 0.767),
    ("CCNC(=O)c1noc(-c2cc(C(C)C)c(O)cc2O)c1-c1ccc(CN2CCOCC2)cc1 [Luminespib] + CC(=O)c1c(C)c2cnc(Nc3ccc(N4CCNCC4)cn3)nc2n(C2CCCC2)c1=O [Palbociclib] (partner 0.5 µM)", 0.665),
    ("CCNC(=O)c1noc(-c2cc(C(C)C)c(O)cc2O)c1-c1ccc(CN2CCOCC2)cc1 [Luminespib] + CC1(C)CCC(c2ccc(Cl)cc2)=C(CN2CCN(c3ccc(C(=O)NS(=O)(=O)c4ccc(N[C@H](CCN5CCOCC5)CSc5ccccc5)c(S(=O)(=O)C(F)(F)F)c4)cc3)CC2)C1 [Navitoclax] (partner 0.5 µM)", 0.449),
]

Field: relative viability. Fill in for each record below.
1. CCNC(=O)c1noc(-c2cc(C(C)C)c(O)cc2O)c1-c1ccc(CN2CCOCC2)cc1 [Luminespib] + N=C(N)NC(=N)NCCc1ccccc1 [Phenformin] (partner 250 µM)
2. CCNC(=O)c1noc(-c2cc(C(C)C)c(O)cc2O)c1-c1ccc(CN2CCOCC2)cc1 [Luminespib] + Cc1nc(NC(=O)N2CCC[C@H]2C(N)=O)sc1-c1ccnc(C(C)(C)C(F)(F)F)c1 [Alpelisib] (partner 2 µM)

0.398
0.584
